Molecular target: M2 muscarinic receptor (Homo sapiens, UniProt P08172)
Construct: expressed in transfected cells
Sequence (P08172 whole entry): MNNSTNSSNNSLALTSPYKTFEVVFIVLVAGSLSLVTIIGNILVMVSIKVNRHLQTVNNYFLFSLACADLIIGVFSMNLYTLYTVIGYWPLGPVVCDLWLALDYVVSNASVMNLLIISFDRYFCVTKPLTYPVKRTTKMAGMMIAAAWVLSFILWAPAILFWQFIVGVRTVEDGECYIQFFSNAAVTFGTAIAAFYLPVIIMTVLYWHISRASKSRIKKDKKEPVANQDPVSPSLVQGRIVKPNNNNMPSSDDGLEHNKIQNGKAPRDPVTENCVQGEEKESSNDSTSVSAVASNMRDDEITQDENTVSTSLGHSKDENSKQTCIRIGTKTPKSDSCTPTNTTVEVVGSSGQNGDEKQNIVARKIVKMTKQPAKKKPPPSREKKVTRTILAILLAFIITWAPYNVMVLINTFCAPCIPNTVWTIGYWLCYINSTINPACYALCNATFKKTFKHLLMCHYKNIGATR
Test: Receptor Selection and Amplification (R-SAT) assay, cloned M2 receptor
Type: cell-based
Details: R-SAT, second table (COMPOUND ID series)
result-type: M2 Eff
Answer with a bare number; do not write a unit.

Consider the following illustrative entries.
// query Report M2 Eff for CCON=C1CC2CCC(C1)N2C[C@@H](C)CN1C(=O)COc2ccccc21 (single isomer, unassigned) [Compound 00261435] please.
// result 128

// query Report M2 Eff for "CCCC[C@]1(O)C[C@H]2CC[C@@H](C1)N2C[C@@H](C)CN1C(=O)COc2ccccc21" please.
// result 40

// query Report M2 Eff for "O=C1COc2cc(F)ccc2N1CCCN1[C@@H]2CC[C@H]1C[C@@H](OCC1CC1)C2" please.
// result 45

// query Report M2 Eff for "O=C1COc2ccc(F)cc2N1CCCN1CCC(OCC2CC2)CC1" please.
// result 53

// query Report M2 Eff for "C[C@H](CN1CCC(OCC2CC2)CC1)CN1C(=O)COc2ccccc21" please.
// result 103

// query Report M2 Eff for "O=C1CCc2cc(F)c(F)cc2N1CCCN1CCC(OCC2CC2)CC1" please.
// result 57

---
// query Report M2 Eff for "C[C@@H](CN1C(=O)COc2ccccc21)CN1[C@@H]2CC[C@H]1C[C@@H](OCC1CC1)C2" please.
// result 124

// query Report M2 Eff for "O=C1COc2cc(F)c(F)cc2N1CCCN1CCC(OCC2CC2)CC1" please.
// result 61

###

Target: M3 muscarinic receptor (Homo sapiens)
Construct: expressed in transfected cells
Sequence (P20309 whole entry): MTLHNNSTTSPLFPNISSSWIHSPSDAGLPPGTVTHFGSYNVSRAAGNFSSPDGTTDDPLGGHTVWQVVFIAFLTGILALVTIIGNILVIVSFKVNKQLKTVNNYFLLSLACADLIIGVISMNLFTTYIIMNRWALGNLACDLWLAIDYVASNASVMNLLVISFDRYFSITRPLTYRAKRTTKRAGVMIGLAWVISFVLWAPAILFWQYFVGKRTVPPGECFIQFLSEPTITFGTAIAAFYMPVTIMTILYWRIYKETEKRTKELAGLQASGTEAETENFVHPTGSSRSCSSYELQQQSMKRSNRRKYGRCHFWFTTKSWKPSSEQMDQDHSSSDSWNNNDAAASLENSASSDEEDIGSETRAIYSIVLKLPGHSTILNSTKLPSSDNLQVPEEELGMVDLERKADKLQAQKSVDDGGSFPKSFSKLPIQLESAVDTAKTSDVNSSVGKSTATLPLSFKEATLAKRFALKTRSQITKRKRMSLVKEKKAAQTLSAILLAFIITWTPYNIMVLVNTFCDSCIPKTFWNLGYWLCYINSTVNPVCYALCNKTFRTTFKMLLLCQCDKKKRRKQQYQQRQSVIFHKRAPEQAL
Assay: Receptor Selection and Amplification (R-SAT) assay, cloned M3 receptor
Type: cell-based
result-type: EC50 (nM)
Dear colleague, please return just the value in nM, with no unit written.

// query Request body: readout EC50, system M3 muscarinic receptor (Homo sapiens), query "C[C@@H](CN1C(=O)COc2ccccc21)CN1[C@@H]2CC[C@H]1C[C@@H](OCC1CC1)C2" . Return the value.
// result 398

// query Request body: readout EC50, system M3 muscarinic receptor (Homo sapiens), query CCON=C1CC2CCC(C1)N2C[C@@H](C)CN1C(=O)COc2ccccc21 (single isomer, unassigned) . Return the value.
// result 631

--- query ---
// query Request body: readout EC50, system M3 muscarinic receptor (Homo sapiens), query CCOCCC1CC2CCC(C1)N2CC(C)CN1C(=O)COc2ccccc21 (single isomer, unassigned) . Return the value.
// result 158

###

Listed here: items and their measured M2 Eff.
Target: M2 muscarinic receptor (Homo sapiens)
Construct: expressed in transfected cells
Assay: Receptor Selection and Amplification (R-SAT) assay, cloned M2 receptor
Assay type: cell-based
Conditions: R-SAT, second table (COMPOUND ID series)

// query Report M2 Eff for CC(CN1C(=O)COc2ccccc21)CN1[C@@H]2CC[C@H]1C[C@@H](OCC1CC1)C2 (mixture of isomers) please.
// result 72

// query Report M2 Eff for CCOCCC1CC2CCC(C1)N2CC(C)CN1C(=O)COc2ccccc21 (single isomer, unassigned) [Compound 00263201] please.
// result 52

// query Report M2 Eff for CCOCCC1CC2CCC(C1)N2CC(C)CN1C(=O)COc2ccccc21 (single isomer, unassigned) [Compound 00262998] please.
// result 56

---
// query Report M2 Eff for CCc1cccc2c1OCC(=O)N2CC(C)CN1CCC(OCC2CC2)CC1 (racemic) please.
// result 32

// query Report M2 Eff for COC(CN1CCC(OCC2CC2)CC1)CN1C(=O)COc2cc(F)ccc21 (racemic) please.
// result 71

// query Report M2 Eff for CC(CN1CCC(OCC2CCC2)CC1)CN1C(=O)COc2ccccc21 (racemic) please.
// result 28
